Hello, the source for this data is ChEMBL document CHEMBL4842386, in case you need it.

assay: Drug distribution in Sprague-Dawley rat extensor digitorum longus to blood ratio at 100 mg/kg, po by HPLC analysis; assay type: ADME, organism-based
Experimental Endpoint: Kp
Reply briefly: the number, and no unit.

Look over these answered cases.
INSERT INTO assay_data (smiles_notation, experimental_endpoint, reported_result) VALUES
  ('CNC(=O)c1cccc(-c2cnc(NC[C@]3(c4ncccc4F)C[C@H](F)C3)nc2)c1', 'Kp', 0.54),
  ('NC(=O)c1ccn(-c2cnc(NC[C@]3(c4ncccc4F)C[C@H](F)C3)nc2)c1', 'Kp', 0.85);

Now for another entry.
So, NC(=O)c1cccc(-c2cnc(NC[C@]3(c4ncccc4F)C[C@H](F)C3)nc2)c1 ? Its Kp was 1.2
